The measurements presented in this section are drawn from patent US20240398737A1.

experiment: Toxicokinetics in female rats (4-day oral gavage study, Day 1); assay type: in vivo; details: Wistar Han (RccHan:WIST); female rat plasma; 100 mg/kg/day oral gavage; Day 1; read-out: AUC0-24
READOUT NAME: AUC(0-t) (µg·h/mL)

[[record]]
chemical_smiles = "CC(C)(CCCCc1cccc(CCCCC(C)(C)C(=O)O)c1)C(=O)O"
readout_name = "AUC(0-t)"
units = "µg·h/mL"
readout_value = 2030

[[record]]
chemical_smiles = "CC(C)(CCCCc1ccc(CCCCC(C)(C)C(=O)O)cc1)C(=O)O"
readout_name = "AUC(0-t)"
units = "µg·h/mL"
readout_value = 5460

